Overview of reported IC50 across a group of compounds:
- TARGET: UniProtKB P54763
- Sequence (P54763 19-543 limits assumed): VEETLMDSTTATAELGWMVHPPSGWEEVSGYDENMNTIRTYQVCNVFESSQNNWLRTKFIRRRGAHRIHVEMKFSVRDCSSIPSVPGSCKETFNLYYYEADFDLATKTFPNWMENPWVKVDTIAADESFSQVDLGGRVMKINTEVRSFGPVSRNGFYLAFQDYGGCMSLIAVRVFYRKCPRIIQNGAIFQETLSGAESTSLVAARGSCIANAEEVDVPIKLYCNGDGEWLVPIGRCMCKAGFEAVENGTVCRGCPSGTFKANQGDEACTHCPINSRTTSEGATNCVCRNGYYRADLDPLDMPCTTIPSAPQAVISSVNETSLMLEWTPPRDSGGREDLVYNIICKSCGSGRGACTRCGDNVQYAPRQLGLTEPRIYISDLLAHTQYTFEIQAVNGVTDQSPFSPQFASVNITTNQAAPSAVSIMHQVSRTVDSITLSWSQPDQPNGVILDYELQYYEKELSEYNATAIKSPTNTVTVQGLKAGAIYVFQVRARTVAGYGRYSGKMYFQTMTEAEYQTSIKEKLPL
- TEST NAME: Octet, immobilized mouse EphB2 binding to mouse EphrinB2
- ASSAY SETUP: Absolute Dissociation IC50, mEphB2-mEphrinB2; immobilized mouse EphB2; 50 nM soluble mouse EphrinB2; dissociation; absolute
// note: answer is a bare numeric in µM

The following compounds have reported results that may help.
INSERT INTO measurements (molecular_string, test_value) VALUES
  ('Oc1ccc(CN2CCOCC2)c2cccnc12', 9.9),
  ('Oc1c(Cl)cc(CN2CCOCC2)c2cccnc12', 0.9),
  ('Oc1ccc(CN2CCN(Cc3ccc(C(F)(F)F)cc3)CC2)c2cccnc12', 8.12),
  ('Oc1c(Br)cc(CN2CCOCC2)c2cccnc12', 0.68);

Here is the next item to consider.
Ask | Provide only the value of recorded IC50 for `O=S1(=O)CCN(Cc2ccc(O)c3ncccc23)CC1`
Reply | 6.53

FYI, the data here is from patent US20260374739A1.
